These data points were gathered from patent US11851440B2.

# System: ISR pathway (ATF4 translation)
# Method: ATF4 Nano Luciferase reporter integrated stress response (ISR) assay in H4 ATF4-NLuc cells
# Experimental parameters: Homo sapiens, H4 ATF4-NLuc (clone 17) cells; compound 30 minutes, then 50 um sodium arsenite for 6 hours; luminescence readout
Readout: IC50 (nM)

# Compound, Measured number
measured = [
    ("O=C(COc1ccc(Cl)c(F)c1)NC12CC(c3nnc([C@H]4C[C@@H](OC(F)F)C4)o3)(C1)C2", 13.7),
    ("O=C(NC12CC(c3nnc([C@H]4C[C@@H](OC(F)(F)F)C4)o3)(C1)C2)c1ccc2cc(Cl)ccc2n1", 3.8),
]

[A] O=C(COc1ccc(Cl)c(F)c1)NC12CC(c3nnc(CCCOC(F)(F)F)o3)(C1)C2
[B] O=C(COc1ccc(Cl)c(F)c1)NC12CC(n3cnc([C@H]4C[C@@H](OC(F)(F)F)C4)c3)(C1)C2
[C] O=C(NC12CC(c3nnc([C@H]4C[C@@H](OC(F)(F)F)C4)o3)(C1)C2)c1ccc2cc(C(F)(F)F)ccc2n1
[D] O=C(CO[C@H]1C[C@@H](OC(F)(F)F)C1)NC12CC(n3cnc(-c4ccc(Cl)cc4F)c3)(C1)C2
[E] O=C(COCCOC(F)(F)F)NC12CC(n3cnc(-c4ccc(Cl)c(F)c4)c3)(C1)C2
Endpoint returns the given compounds ordered by ascending IC50. Answer with the labels in sequence, matching the requested order.
B, D, C, A, E

[a] O=C(COc1ccc(Br)cc1)NC12CC(c3nnc([C@H]4C[C@@H](OC(F)(F)F)C4)o3)(C1)C2
[b] O=C(COc1ccc(Cl)c(F)c1)NC12CC(NCCO[C@H]3C[C@@H](OC(F)(F)F)C3)(C1)C2
In the pair a and b , the larger recorded IC50 belongs to which? Lab log: write the label of the selected item as the result.
b
(b: 18.1 nM, a: 8.5 nM)

====

# Test system: ISR pathway (ATF4 translation)
# Method: ATF4 Nano Luciferase reporter integrated stress response (ISR) assay in H4 ATF4-NLuc cells
# Experimental parameters: Homo sapiens, H4 ATF4-NLuc (clone 17) cells; compound 30 minutes, then 50 um sodium arsenite for 6 hours; luminescence readout
Readout: IC50 (µM)

# Compound, IC50 (µM)
data = [
    ("O=C(COc1ccc(C(F)(F)F)nc1)NC12CC(n3cnc(C4CC(OC(F)(F)F)C4)c3)(C1)C2 (stereo not shown)", 0.0355),
]

[a] O=C(COc1ccc(C(F)(F)F)nc1)NC12CC(n3cnc(-c4ccc(F)c(F)c4)c3)(C1)C2
[b] O=C(CO[C@H]1C[C@@H](OC(F)(F)F)C1)NC12CC(n3cnc(-c4ccc(Cl)cc4)c3)(C1)C2
[c] O=C(CO[C@H]1C[C@@H](OC(F)(F)F)C1)NC12CC(n3cnc(-c4ccc(Cl)c(F)c4)c3)(C1)C2
Sort the 3 compounds by IC50; largest first, smallest last. Answer with the labels in sequence, matching the requested order.
a, b, c

[a] O=C(CO[C@H]1C[C@@H](OC(F)(F)F)C1)NC12CC(n3cnc(-c4c(F)cc(Cl)cc4F)c3)(C1)C2
[b] O=C(NC12CC(c3nnc([C@H]4C[C@@H](OC(F)(F)F)C4)o3)(C1)C2)c1ccc2cc(Cl)cnc2c1
Returns: the label, a or b , whose recorded IC50 is the lower number. Lab log: write the label of the selected item as the result.
a
(a: 0.0075 µM, b: 0.0439 µM)

====

# Tested on: ISR pathway (ATF4 translation)
# Method: ATF4 Nano Luciferase reporter integrated stress response (ISR) assay in H4 ATF4-NLuc cells
# Experimental parameters: Homo sapiens, H4 ATF4-NLuc (clone 17) cells; compound 30 minutes, then 50 um sodium arsenite for 6 hours; luminescence readout
pIC50: −log10 of the molar value.
Readout: pIC50

Examples with their reported pIC50 follow.
# Molecule, pIC50
records = [
    ("O=C(CO[C@H]1C[C@@H](OC(F)(F)F)C1)NC12CC(n3cnc(-c4ccc(C(F)(F)F)cc4F)c3)(C1)C2", 8.59),
    ("O=C(NC12CC(c3nnc([C@H]4C[C@@H](OC(F)(F)F)C4)o3)(C1)C2)C1CCc2cc(Cl)ccc2O1 (single isomer, unassigned)", 8.04),
    ("O=C(COc1ccc(Cl)cc1)NC12CC(c3nnc([C@H]4C[C@@H](OC(F)(F)F)C4)o3)(C1)C2", 8.04),
]

[1] O=C(CO[C@H]1C[C@@H](OC(F)(F)F)C1)NC12CC(n3cnc(-c4ccc(Cl)c(F)c4F)c3)(C1)C2
[2] O=C(COc1ccc(Cl)c(F)c1)NC12CC(c3nnc([C@H]4C[C@@H](OC(F)(F)F)C4)o3)(C1)C2
In the pair 1 and 2 , the larger recorded pIC50 belongs to which? Lab log: write the label of the selected item as the result.
1
